- procedure text: Plasma pharmacokinetic studies of idronoxil in rats (rectal in cocoa butter vs intestinal in lipid emulsion)
- Type: in vivo, Male Sprague-Dawley rats
- stated conditions: male, Sprague-Dawley, rat, plasma, other: rectal, 10 mg/kg, Rectal delivery, cocoa butter, 10 mg/kg, 5 hr; read-out: Idronoxil Plasma Concentration Mean
value kind: concentration at 5 h (µg/mL)

> print(dat)
                 smiles.notation            value.kind  recorded.number
1  Oc1ccc(C2=Cc3ccc(O)cc3OC2)cc1  concentration at 5 h           0.0463

---

- procedure text: Plasma pharmacokinetic studies of idronoxil in rats (rectal in cocoa butter vs intestinal in lipid emulsion)
- Format: in vivo, Male Sprague-Dawley rats
- stated conditions: male, Sprague-Dawley, rat, plasma, other: intraduodenal infusion, 10 mg/kg, Intestinal delivery (intraduodenal infusion), lipid emulsion, 10 mg/kg, 8 hr; read-out: Idronoxil Plasma Concentration Rat 2
value kind: concentration at 8 h (ng/mL)

> print(dat)
                 smiles.notation            value.kind  units.symbol  recorded.number
1  Oc1ccc(C2=Cc3ccc(O)cc3OC2)cc1  concentration at 8 h         ng/mL             4.23

---

- procedure text: Plasma pharmacokinetic studies of idronoxil in rats (rectal in cocoa butter vs intestinal in lipid emulsion)
- Assay type: in vivo, Male Sprague-Dawley rats
- stated conditions: male, Sprague-Dawley, rat, plasma, other: rectal, 10 mg/kg, Rectal delivery, cocoa butter, 10 mg/kg, 7 hr; read-out: Idronoxil Plasma Concentration Rat 3
value kind: concentration at 7 h (ng/mL)

> print(dat)
                 smiles.notation            value.kind  units.symbol  recorded.number
1  Oc1ccc(C2=Cc3ccc(O)cc3OC2)cc1  concentration at 7 h         ng/mL             11.4

---

- procedure text: Plasma pharmacokinetic studies of idronoxil in rats (rectal in cocoa butter vs intestinal in lipid emulsion)
- Format: in vivo, Male Sprague-Dawley rats
- stated conditions: male, Sprague-Dawley, rat, plasma, other: rectal, 10 mg/kg, Rectal delivery, cocoa butter, 10 mg/kg, 5 hr; read-out: Idronoxil Plasma Concentration Rat 3
value kind: concentration at 5 h

> print(dat)
                 smiles.notation      result
1  Oc1ccc(C2=Cc3ccc(O)cc3OC2)cc1  39.5 ng/mL

---

- procedure text: Plasma pharmacokinetic studies of idronoxil in rats (rectal in cocoa butter vs intestinal in lipid emulsion)
- Format: in vivo, Male Sprague-Dawley rats
- stated conditions: male, Sprague-Dawley, rat, plasma, other: intraduodenal infusion, 10 mg/kg, Intestinal delivery (intraduodenal infusion), lipid emulsion, 10 mg/kg, 7 hr; read-out: Idronoxil Plasma Concentration Rat 2
value kind: concentration at 7 h

> print(dat)
                 smiles.notation      result
1  Oc1ccc(C2=Cc3ccc(O)cc3OC2)cc1  6.75 ng/mL

---

- procedure text: Plasma pharmacokinetic studies of idronoxil in rats (rectal in cocoa butter vs intestinal in lipid emulsion)
- Type: in vivo, Male Sprague-Dawley rats
- stated conditions: male, Sprague-Dawley, rat, plasma, other: intraduodenal infusion, 10 mg/kg, Intestinal delivery (intraduodenal infusion), lipid emulsion, 10 mg/kg, 1 hr; read-out: Idronoxil Plasma Concentration Rat 1
value kind: concentration at 1 h (ng/mL)

> print(dat)
                 smiles.notation  recorded.number
1  Oc1ccc(C2=Cc3ccc(O)cc3OC2)cc1              114
